Cited source for all entries: PubChem BioAssay AID1745844

Test system: rodent lifetime carcinogenesis bioassay, tumor incidence TD50
Assay Explanation: carcinogenic potency in animals, long-term in vivo studies, CPDB compilation (AID 1745844)
Settings: mouse; strain B6C3F1; females; by gavage; site: any site (literature study); lesion: several types; types named in the paper; dosed 78 weeks; study length 92 weeks
TD50 values, listed per item
Readout Name: TD50 (mg/kg/day)

* ClC(Cl)C(Cl)Cl | 37.2
* ClC(Cl)Cl | 54.1

* * *

Tested on: rodent lifetime carcinogenesis bioassay, tumor incidence TD50
Assay Explanation: carcinogenic potency in animals, long-term in vivo studies, CPDB compilation (AID 1745844)
Settings: mouse; strain CDF1; females; in feed; site: lung; lesion: several types; types named in the paper; dosed 91 weeks; study length 91 weeks
The source made the active and inactive calls. How the calls were made is not given here.
Readout Name: TD50

- Cc1cc2ncccc2c2nc(N)n(C)c12: 25.1 mg/kg/day (inactive)

* * *

Tested on: rodent lifetime carcinogenesis bioassay, tumor incidence TD50
Assay Explanation: carcinogenic potency in animals, long-term in vivo studies, CPDB compilation (AID 1745844)
Settings: rat; strain F344/DuCrj; females; in feed; site: liver; lesion: cholangioma, cystic; dosed 96 weeks; study length 96 weeks
Readout Name: TD50 (mg/kg/day)

* CCCCOCCOCCOCc1cc2c(cc1CCC)OCO2 | 19100

* * *

Test system: rodent lifetime carcinogenesis bioassay, tumor incidence TD50
Assay Explanation: carcinogenic potency in animals, long-term in vivo studies, CPDB compilation (AID 1745844)
Settings: rat; strain Fischer 344; females; in feed; site: liver; lesion: hepatocellular adenoma + hepatocellular carcinoma + neoplastic nodule; dosed 78 weeks; study length 107 weeks
Each entry below carries its reported TD50.
Readout Name: TD50 (mg/kg/day)

• COc1ccc(N)cc1N = 14500
• CCn1c2ccccc2c2cc(N)ccc21 = 237

* * *

Tested on: rodent lifetime carcinogenesis bioassay, tumor incidence TD50
Assay Explanation: carcinogenic potency in animals, long-term in vivo studies, CPDB compilation (AID 1745844)
Settings: mouse; strain B6C3F1; females; inhaled; site: ovary; lesion: adenoma + mixed tumor, benign; dosed 83 weeks; study length 104 weeks
Readout Name: TD50

- C=CC=C: 78.9 mg/kg/day

* * *

Tested on: rodent lifetime carcinogenesis bioassay, tumor incidence TD50
Assay Explanation: carcinogenic potency in animals, long-term in vivo studies, CPDB compilation (AID 1745844)
Settings: rat; strain Wistar; males; in feed; site: kidney; lesion: renal-cell carcinoma; dosed 52 weeks; study length 52 weeks
Readout Name: TD50

• O=P(O)(OCC(Br)CBr)OCC(Br)CBr (stereo unspecified) = 129 mg/kg/day

* * *

Tested on: rodent lifetime carcinogenesis bioassay, tumor incidence TD50
Assay Explanation: carcinogenic potency in animals, long-term in vivo studies, CPDB compilation (AID 1745844)
Settings: rat; strain Sprague-Dawley; females; in feed; site: thymus gland; lesion: lymphosarcoma; dosed 46 weeks; study length 60 weeks
Readout Name: TD50

- CN(C)N=Nc1nc[nH]c1C(N)=O: 4.21 mg/kg/day

* * *

Test system: rodent lifetime carcinogenesis bioassay, tumor incidence TD50
Assay Explanation: carcinogenic potency in animals, long-term in vivo studies, CPDB compilation (AID 1745844)
Settings: mouse; strain B6C3F1; females; by gavage; site: vagina; lesion: squamous-cell carcinoma + squamous-cell papilloma; dosed 104 weeks; study length 104 weeks
Readout Name: TD50

• Cc1cn([C@H]2C[C@H](N=[N+]=[N-])[C@@H](CO)O2)c(=O)[nH]c1=O = 209 mg/kg/day
